These data points were gathered from ChEMBL document CHEMBL1143640.

Assay: In vitro intrinsic clearance against rat hepatocytes
RECORDED_ENDPOINT: Clint (uL/min/10e6 cells)

Record summary for CCN(C(=O)Cc1ccc(S(C)(=O)=O)cc1)C1CCN(CCC(c2ccccc2)c2ccc(OC)cc2)CC1 (centres undefined) : reported Clint = 41

[I] CCN(C(=O)Cc1ccc(S(C)(=O)=O)cc1)C1CCN(CCC(c2ccc(NC(C)=O)cc2)c2cccc(F)c2)CC1 (centres undefined)
[II] CCN(C(=O)Cc1ccc(S(C)(=O)=O)cc1)C1CCN(CCC(c2ccccc2)c2ccc(C(F)(F)F)cc2)CC1 (centres undefined)
input: When the recorded Clint values are compared, which is smaller: that of I or that of II ? Give the chosen item's label as your response.
output: I
